Measured values drawn from patent US20210009668A1 for this set.

- assay_target: T1, recombinant human cardiac troponin T (human, UniProt P45379 2-298)
- T1 construct: In the ECL assay the cTnT came from the Troponin T hs CalSet calibrator; also called cTnT; TnT
- protocol: SPR (Biacore T200, 37 C), Fab captured, cTnT analyte
reported_property: t/2-diss

>  <binder>
anti-cTnT Fab mutant 20 (V101Y + Y104F) (Fab, V domains shown, also called combination 20) VH: EVQLQQSGPELVKPGASVKMSCKASGYTFTDYYMKWVKQSHGKSLEWIGDINPNNGETFYNQKFKDKATLTVDKSSSTAYMQLNSLTSEDSAVYYCATRYFDFWGQGTTLTVSS VL: DIVLTQSPASLAVSLGQRATISCKASQSVDYDGTSYMNWFQQKAGQPPKRLIYAASNLESGIPARFSGRGSGTDFALNIHPVEEEDAATYYCQQSNEDPYTFGGGTKLEIK

>  <recorded_measurement>
3 min

$$$$
>  <binder>
anti-cTnT Fab mutant 7 (Y34F, Y104F) (Fab, V domains shown, also called combination 7) VH: EVQLQQSGPELVKPGASVKMSCKASGYTFTDYFMKWVKQSHGKSLEWIGDINPNNGETFYNQKFKDKATLTVDKSSSTAYMQLNSLTSEDSAVYYCATRVFDFWGQGTTLTVSS VL: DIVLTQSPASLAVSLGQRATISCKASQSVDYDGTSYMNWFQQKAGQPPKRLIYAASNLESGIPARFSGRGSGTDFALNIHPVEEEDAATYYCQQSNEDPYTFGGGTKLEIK

>  <recorded_measurement>
11 min

$$$$

Please look at the following binder next.
Consider anti-cTnT Fab mutant 18 (V101Y) (Fab, V domains shown, it was tied to mutant 18 by the printed mutation V101Y; also called combination 18) VH: EVQLQQSGPELVKPGASVKMSCKASGYTFTDYYMKWVKQSHGKSLEWIGDINPNNGETFYNQKFKDKATLTVDKSSSTAYMQLNSLTSEDSAVYYCATRYFDYWGQGTTLTVSS VL: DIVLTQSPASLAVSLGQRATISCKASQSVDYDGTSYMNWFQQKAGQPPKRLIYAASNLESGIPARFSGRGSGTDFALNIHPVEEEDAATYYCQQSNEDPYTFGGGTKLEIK . Its measured t/2-diss is 2 min
